Value source: ChEMBL document CHEMBL2440019

tested on: Liver; experiment: Half life in mouse liver microsomes; assay type: ADME, Microsome
Examples of compounds with documented t1/2 follow.

>  <Smiles representation>
COc1cc2c(NC3CCN(C(C)C)CC3)nc(N3CC(F)(F)C(F)(F)C3)nc2cc1OCCCN1CCCC1

>  <Target or system>
Liver

>  <Inequality sign>
>

>  <t1/2 (h)>
1.5

$$$$
>  <Smiles representation>
COc1cc2c(NC3CCN(C(C)C)CC3)nc(C3CCOCC3)nc2cc1OCCCN1CCC(F)(F)CC1

>  <Target or system>
Liver

>  <Inequality sign>
=

>  <t1/2 (h)>
0.167

$$$$
>  <Smiles representation>
COc1cc2c(NC3CCN(C(C)C)CC3)nc(N3CCC(F)(F)CC3)nc2cc1OCCCN1CCCC1

>  <Target or system>
Liver

>  <Inequality sign>
>

>  <t1/2 (h)>
1.5

$$$$
>  <Smiles representation>
COc1cc2c(NC3CCN(C(C)C)CC3)nc(C3CCCCC3)nc2cc1OCCCN1CCCC1

>  <Target or system>
Liver

>  <Inequality sign>
=

>  <t1/2 (h)>
1.22

$$$$
>  <Smiles representation>
COc1cc2c(NC3CCN(C(C)C)CC3)nc(N3CCOCC3)nc2cc1OCCCN1CCCC1

>  <Target or system>
Liver

>  <Inequality sign>
>

>  <t1/2 (h)>
1.5

$$$$
>  <Smiles representation>
COc1cc2c(NC3CCN(C(C)C)CC3)nc(C3CCOCC3)nc2cc1OCCCN1CCCC1

>  <Target or system>
Liver

>  <Inequality sign>
=

>  <t1/2 (h)>
0.267

$$$$
